study-system: human serum albumin (human) (UniProt P02768)
Sequence (P02768 25-609 limits assumed): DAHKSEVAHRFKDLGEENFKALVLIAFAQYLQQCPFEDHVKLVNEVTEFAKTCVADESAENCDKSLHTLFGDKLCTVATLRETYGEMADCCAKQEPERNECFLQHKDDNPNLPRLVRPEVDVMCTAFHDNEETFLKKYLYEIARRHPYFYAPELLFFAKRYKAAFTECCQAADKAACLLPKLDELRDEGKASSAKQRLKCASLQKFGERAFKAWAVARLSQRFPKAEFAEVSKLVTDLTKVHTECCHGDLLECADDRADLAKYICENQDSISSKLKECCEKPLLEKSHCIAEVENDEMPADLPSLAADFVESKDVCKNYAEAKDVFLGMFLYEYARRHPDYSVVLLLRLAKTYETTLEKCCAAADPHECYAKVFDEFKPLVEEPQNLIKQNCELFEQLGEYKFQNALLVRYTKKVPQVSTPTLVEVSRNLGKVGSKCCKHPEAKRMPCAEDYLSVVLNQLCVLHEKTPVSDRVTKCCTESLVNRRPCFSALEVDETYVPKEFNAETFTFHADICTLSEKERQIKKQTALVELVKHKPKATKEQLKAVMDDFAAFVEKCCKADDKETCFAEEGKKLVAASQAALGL
method-description: indirect ELISA, HSA coated
Rule: ELISA affinity (LogIC50 (oD450nm)) below 5 gives Fulfilled. Equal to or above 5 gives Not fulfilled.

[ask] Input H32 (VHH) VHH: HVQLVESGGGLVQAGGSLRLSCAASDTIDNYARAWFRQAPGKEREFVAAITWTFGTPYYTDSVKGRFTISRDDAKNTVYLQMNSLKPEDTAVYYCAASLYLPVRTASGGYRLDTDRPQYWGQGTQVTVSS ; condition: ELISA affinity (LogIC50 (oD450nm)) strictly below 5. Does it hold?
[reply] Not fulfilled

[ask] Input H37 (VHH) VHH: QVQLVESGGGLVQAGGSLRLSCAASGLTFSNYALGWFRRAPGKERDFVAAISYSGGSTDYADSVKGRFTISRDNAKNTVYLQMNSLKPEDTAVYYCAAAYLGWGTARTAYEYWGQGTQVTVSS ; condition: ELISA affinity (LogIC50 (oD450nm)) strictly below 5. Does it hold?
[reply] Fulfilled

[ask] Input H10 (VHH) VHH: DVQLVESGGGLVQAGGSLRLSCRASGLPFGPYTMGWFRQTPGQEREFVAAITWSSMNTNYADSVKGRFTISRDSAKNTVYLQMNTLKPDDTAVYYCAADDRAVPMLGDFEDYIYWGQGTQVTVSS ; condition: ELISA affinity (LogIC50 (oD450nm)) strictly below 5. Does it hold?
[reply] Fulfilled

[ask] Input H13 (VHH) VHH: HVQLVESGGGLVQAGGSLRLSCAASGRTFSTYHMGWFRQAPGKAREFVAAITGSGGITYYADSVKGRFTISRDNAKNTVYLQMNSLKPEDTAVYYCAADTRAYGLVPSTTSSRYNYWGQGTQVTVSS ; condition: ELISA affinity (LogIC50 (oD450nm)) strictly below 5. Does it hold?
[reply] Fulfilled
